# EXPERIMENTAL TARGET: T1, human TIM3, full length, on cells (human, UniProt Q8TDQ0 22-301)
# T1 construct: CHO-K1 cells were transfected with a plasmid for full-length human Tim3; other cells carry endogenous TIM3; also called huTIM-3; CHO-Tim3
# PROTOCOL DESCRIPTION: FACS, human CD14+ monocytes, donor2, 10 µg/ml

BINDER: anti-TIM3 antibody Tim3_0021 (antibody, V domains shown, Mouse monoclonal from hybridoma) VH: QVQLQQSGPQLVRPGASVQISCKASGYSFTSYLLHWLKQRPGQGLEWIGMIDPSDSETRLNQKFKDKATLTVDKSSSTAYMQLSSPTSEDSAVYYCARDGYYAWYYFDCWGQGTTLTVSS VL: DIVLTQSPATLSVTPGDRVSLSCRASQSIGNNLHWYQQKSHESPRLLIKYASHSISGIPSKFSGTGSGTDFTLSFNSVETEDFGMYFCQQSNSWPLTFGAGTKLELK
UNIT DESCRIPTOR: MFI
Specific Binding [MFI]: 951

BINDER: anti-TIM3 antibody Tim3_0016 variant (Tim3_0018) (antibody, V domains shown, Mouse monoclonal from hybridoma; also called TIM3-0016 variant (0018); Tim3_0016 variant 0018-A488) VH: QVTLKESGPGILQPSQTLSLTCSFSGFSLSTSGMSVGWIRQPSGKGLEWLAHIWLNDDVFFNPALKRRLTISKDTSNNQVFLQIASVVTADTATYYCVRANGYLYALDYWGQGISVTVSS VL: QIVLTQSPAIMSASPGQKVTITCSASSSVNYTQWYQQKLGSSPKLWIYDAFKLAPGVPARFSGSGTGTSYSLTISSMEAEDAASYFCHQWSSYPWTFGGGTKLEIK
UNIT DESCRIPTOR: MFI
Specific Binding [MFI]: 1820

BINDER: anti-TIM3 antibody Tim3_0038 (antibody, V domains shown, Mouse monoclonal from hybridoma) VH: EVQLQQSGAEPLKPGASVKLTCTTSGFNIKDYYIHWVKQRSDQGLEWIGRIDPEDGELIYAPKFQDKATITVDTSSNIAYLQLNSLTSEDTAVYYCSRDHGYVGWFAYWGQGTLVTVSA VL: NVVMTQSPKSMIMSVGQRVTLNCKASENVDTYVSWYQQKPEQSPKLLIYGASNRYTGVPDRFTGSRSATDFTLTISSVQAEDLAVYYCGQSYSYPWTFGGGTKLEFR
UNIT DESCRIPTOR: MFI
Specific Binding [MFI]: 1370

BINDER: anti-TIM3 antibody Tim3_0016 (antibody, V domains shown, Mouse monoclonal from hybridoma; also called clone 0016; Tim3_0016-A488) VH: QVTLKESGPGILQPSQTLRLTCSFSGFSLSTSGMSVGWIRQPSGKGLEWLAHIWLNDDVFFNPALKSRLTISKDTSNNQVFLQIASVVTADTATYYCVRANGYLYALDYWGQGTSVTVSS VL: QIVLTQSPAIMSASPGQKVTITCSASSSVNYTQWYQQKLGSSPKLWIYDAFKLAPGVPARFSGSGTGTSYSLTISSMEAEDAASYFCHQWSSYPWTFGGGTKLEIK
UNIT DESCRIPTOR: MFI
Specific Binding [MFI]: 1630

BINDER: anti-TIM3 antibody Tim3_0028 (antibody, V domains shown, Mouse monoclonal from hybridoma) VH: EVQLQQSVAELVRPGASVKLSCTASGFNIKTTYMHWVKQRPEQGLEWIGRIDPADDNTKYAPKFQGKATITADTSSNTAYLQLSSLTSEDAAIYYCVRDFGYVAWFAYWGQGTLVTFSA VL: NIVMTPTPKFLPVSSGDRVTMTCRASQSVDNYVAWYQQKPGQSPKLLIYYASNRYIGVPDRFTGSGSGTDFTFTISSVQVEDLAVYFCQQHYSSPYTFGSGTKLEIK
UNIT DESCRIPTOR: MFI
Specific Binding [MFI]: 950

BINDER: anti-TIM3 antibody Tim3_0022 (antibody, V domains shown, Mouse monoclonal from hybridoma; also called <TIM-3> Ab(022)) VH: EVQLQESGPSLVKPSQTLSLTCSVTGDSIASAYWNWIRKFPGNKLEYMGYINYSGSTYYNPSLKSRISITRDTSQNQYYLQLNSVTTEDTATYYCVTGDYFDYWGRGTTLTVSS VL: DIQMTQSPSSLSAYLGGKVTITCKARQDVRKNIGWYQHKPGKGPRLLIWYTSTLQSGIPSRFSGSGSGRDYSFNINNLEPEDIATYYCLQYDNLPFTFGTGTKLEIR
UNIT DESCRIPTOR: MFI
Specific Binding [MFI]: 1110

BINDER: anti-TIM3 antibody Tim3_0030 (antibody, V domains shown, Mouse monoclonal from hybridoma) VH: QIQLVQSGPELKKPGETVKISCKASGYPFSEYSIHWVKQAPGKGLKWMVYVNTETGQPIVGDDFRGRFVLSLETSASTAYLQINNLKNEDTATYFCGGGGYPAYWGQGTLVTVSA VL: DVLMTQTPLSLPVSLGDQASISCRSSRSIVHSSGNTYLEWYLQKPGQSPKLLIYKVSNRFSGVPDRFSGSGSGTDFTLNISRVEAEDLGVYYCFQDSHVPFTFGTGTKLEIK
UNIT DESCRIPTOR: MFI
Specific Binding [MFI]: 419

BINDER: anti-TIM3 antibody Tim3_0033 (antibody, V domains shown, Mouse monoclonal from hybridoma) VH: QGQMHQSGAELVKPGSSVKLSCKTSGFTFSSSFISWLKQKPGQSLEWIAWIYAATGSTSYNQKFTNKAQLTVDTSSSAAYMQFSSLTTEDSAIYYCARHAGYPHYYAMDYWGQGTSVTVSS VL: DIQMTQSPASLSASVGETVTITCRASENIFSNLAWYQQKQGKSPQLLVYSATNLGDGVPSRFSGSGSGTQFSLKINSLQPEDFGNYYCQHFYKIPFTFGTGTKLEIK
UNIT DESCRIPTOR: MFI
Specific Binding [MFI]: 328
